Test: qHTS Assay for Lipid Storage Modulators (AID 1519); note: % is set by controls: 0 for no effect and ±100 for the full control effect
Settings: Drosophila S3 cells, BODIPY lipid droplet/cell ratio, laser cytometry; at 25.7 µM (top of the series); cells loaded with oleic acid
Results filed as inconclusive are left out.
reportedProperty: activity change, negative = inhibition (%)

* COc1cc(CNC(=O)CCCC/C=C\C(C)C)ccc1O | -6.95
* CO[C@@H](C)[C@](O)(C(=O)OCC1=CCN2CC[C@@H](O)[C@H]12)C(C)C | -0.0062
* C[C@H](N)[C@@H](O)c1ccccc1 | 1.99
* CCN1C[C@@]2(COC)CC[C@H](OC)[C@]34[C@@H]1[C@]1(OCO[C@@]15C[C@@H](OC)C1C[C@H]3[C@H]5[C@@H]1OC)[C@H](O)[C@@H]24 | -0.879
* CC(C)N(CC[C@@](C(N)=O)(c1ccccc1)c1ccccn1)C(C)C | 0.14
* CC(=O)[C@@H]1CC[C@H]2[C@H]3CC[C@H]4C[C@@H](O)CC[C@]4(C)[C@@H]3C(=O)C[C@@]12C | -4.19
* C/C=C1\C[N@@+]2(C)CC[C@@]34C(=C(C=O)[C@H]1C[C@H]32)Nc1ccccc14 | -2.98
* COc1cc([C@H]2c3cc4c(cc3[C@@H](O)[C@@H]3COC(=O)[C@H]23)OCO4)cc(OC)c1OC | -6.44
* CC[N@+]1(C)CCC[C@@H](OC(=O)C(O)(c2ccccc2)c2ccccc2)C1 | -4.06

* * *

Molecular target: Cytochrome P450 2C9 (Homo sapiens) (UniProt P11712)
Sequence (P11712 whole entry, looked up): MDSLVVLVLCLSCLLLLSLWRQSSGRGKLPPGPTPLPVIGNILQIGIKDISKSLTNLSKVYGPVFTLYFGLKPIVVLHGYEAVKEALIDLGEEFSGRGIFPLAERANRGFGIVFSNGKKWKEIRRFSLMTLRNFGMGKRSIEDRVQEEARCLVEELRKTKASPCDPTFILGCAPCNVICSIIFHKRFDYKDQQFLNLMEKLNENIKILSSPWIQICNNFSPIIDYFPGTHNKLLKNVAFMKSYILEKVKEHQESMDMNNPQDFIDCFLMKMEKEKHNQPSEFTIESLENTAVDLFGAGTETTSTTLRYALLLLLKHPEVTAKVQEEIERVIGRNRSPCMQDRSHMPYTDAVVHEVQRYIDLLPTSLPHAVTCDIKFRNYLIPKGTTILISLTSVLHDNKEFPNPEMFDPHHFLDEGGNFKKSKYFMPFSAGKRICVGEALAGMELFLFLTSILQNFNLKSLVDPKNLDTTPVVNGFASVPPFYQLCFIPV
Test: Cytochrome P450 family 2 subfamily C member 9 (CYP2C9) small molecule antagonists: luciferase biochemical (cell-free) qHTS assay (AID 1645842); note: nearly all actives have a fitted effect of over 55% in size
Conditions: P450-Glo CYP2C9 enzyme assay, luciferin luminescence; series mostly up to 57.4 µM
Text: National Center for Advancing Translational Sciences [NCATS] Assay Overview: Cytochrome P450 (CYP) enzymes are membrane-bound hemeproteins that play a key role in metabolism of drugs and xenobiotics. Assaying the effect of chemicals on CYP isozymes is useful to minimize the adverse drug reactions and toxicities in drug development process. […] The luciferin products formed are detected with a luciferin detection reagent, and the amount of light produced is proportional to CYP activity. […]
Inconclusive results are not listed. Activity calls are given as the source filed them. Calls come from the whole dose curve; as a rule, active = well fitted inhibition curve with a large enough effect in the repeat runs; inconclusive = weak or mixed curves; inactive = no such curve, though single readings can be large or run the other way.
Labels: active, inactive

* C[C@@H](C1CC[C@@]2(O)C3=CC(=O)[C@@H]4C[C@@H](O)[C@@H](O)C[C@]4(C)[C@H]3CC[C@]12C)[C@H](O)CCC(C)(C)O (some centres undefined) | inactive
* CC=CC1C(C(=O)OCc2c(F)c(F)c(COC)c(F)c2F)C1(C)C (centres undefined) | active
* CC1(C)[C@H](C=C(Cl)Cl)[C@@H]1C(=O)OCc1c(F)c(F)cc(F)c1F | active
* CC(C)(N)Cc1ccccc1 | inactive
* CCN=C1Nc2ccc(Cl)cc2C(C)(c2ccccc2)O1 (centres undefined) | active
* CCN1CCN(C(c2ccc(Cl)cc2)c2ccc(Cl)cc2)CC1 | inactive
* CCN(CC)N(O)N=O | inactive
* CC1=NCCc2c1[nH]c1cc(O)ccc21 | inactive
* O=[As]O[As]=O (centres undefined) | inactive
* N#CC(O[C@@H]1O[C@H](CO[C@@H]2O[C@H](CO)[C@@H](O)[C@H](O)[C@H]2O)[C@@H](O)[C@H](O)[C@H]1O)c1ccccc1 (some centres undefined) | inactive
* CNC(C)[C@@H](O)c1ccc(O)cc1 (some centres undefined) | inactive
* CC(Cc1ccc2c(c1)OCO2)NCC(O)c1ccc(O)c(O)c1 (centres undefined) | active
* CCOC(=O)/C=C/[C@H](C[C@@H]1CCNC1=O)NC(=O)[C@@H](CC(=O)[C@@H](NC(=O)c1cc(C)on1)C(C)C)Cc1ccc(F)cc1 | active
* NCCS[As](SCCN)c1ccc(Nc2nc(N)nc(N)n2)cc1 | inactive

These data points were gathered from PubChem BioAssay (NCATS).
